B1: PKD2L1 (parent)
chain: YSGGGYYLDLPGSRQGSAEALRAL

# Variants of: B1
# Assay name: protein stability index of a GFP-peptide fusion (GPS, HEK-293T) (PSI 1-6); higher = more stable;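 also: lentivirally expressed fusions sorted by FACS into six bins by GFP to DsRed ratio, PSI derived from sequencing read proportions per bin multiplied by bin number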
# Experimental context: c terminus: a fixed tail appended
Metric name: protein stability index
Enter the number alone.

// solved cases for protein stability index follow
[[record]]
variant_label = "Y7R"
metric_name = "protein stability index"
reported_measurement = 2.06

[[record]]
variant_label = "G3P"
metric_name = "protein stability index"
reported_measurement = 2.31

[[record]]
variant_label = "L24Y"
metric_name = "protein stability index"
reported_measurement = 2.12

[[record]]
variant_label = "A20W"
metric_name = "protein stability index"
reported_measurement = 2.36


Provide measured protein stability index value, entry: `Y6N` 2.83

Provide measured protein stability index value, entry: `S2H` 2.88

Provide measured protein stability index value, entry: `S17D` 1.92

Provide measured protein stability index value, entry: `S2I` 2.34

Provide measured protein stability index value, entry: `E19D` 1.81

Provide measured protein stability index value, entry: `Y7I` 1.39
